The entries below come with measured Ki values attached.
Target sequence: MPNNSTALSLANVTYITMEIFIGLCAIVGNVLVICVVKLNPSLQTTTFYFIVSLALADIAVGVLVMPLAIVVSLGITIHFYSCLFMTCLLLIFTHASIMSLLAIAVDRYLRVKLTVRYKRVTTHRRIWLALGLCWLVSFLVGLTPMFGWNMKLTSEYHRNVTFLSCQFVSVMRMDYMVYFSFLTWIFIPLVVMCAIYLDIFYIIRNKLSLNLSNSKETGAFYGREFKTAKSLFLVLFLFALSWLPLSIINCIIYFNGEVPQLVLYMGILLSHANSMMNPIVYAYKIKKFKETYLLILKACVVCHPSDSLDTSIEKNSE
Record the value in µM, omitting the unit from your answer.

compound=CC(=O)Nc1nc2c(C)cccc2s1 measured_quantity=Ki val=2.3

Query :: Look up Ki: "CC(C)c1nc2c(N)cccn2n1"
Result :: 102

Query :: So what's the measured Ki for this one? CC(=O)Nc1nc2ccccc2s1 [Compound 32, N-(benzo[d]thiazol-2-yl)acetamide]
Result :: 0.81

Query :: Any idea what Ki was measured for Nc1cccn2ncnc12 [Compound 28, [1,2,4]triazolo[1,5-a]pyridin-8-amine] ?
Result :: 153
